// provenance: patent US11213508B2

system: INS-1 insulin-secreting β-cells; experiment: Glucose (8.3 mmol·L^−1)-stimulated insulin secretion in INS-1 cells (HTRF insulin assay); assay type: cell-based; conditions: compound 2 μM; 8.3 mmol·L^−1 glucose; control = glucose alone
metric: % control response (glucose-stimulated insulin secretion) (%)

{"molecule": "O=C(O)C(O)c1ccc(O)cc1 (stereo not drawn) [4′hydroxymandelic acid]", "numericReadout": 103.00}
{"molecule": "O=C(O)[C@H]1O[C@@H](Oc2c(-c3ccc(O)c(O)c3)oc3cc(O)cc(O)c3c2=O)[C@H](O)[C@@H](O)[C@@H]1O [Quercetin-3 -glucuronide]", "numericReadout": 89.00}
{"molecule": "O=C(O)[C@H]1O[C@@H](Oc2c(-c3ccc(O)cc3)oc3cc(O)cc(O)c3c2=O)[C@H](O)[C@@H](O)[C@@H]1O [Kaempferol-3 -glucuronide]", "numericReadout": 111.00}
